Cited source: patent US20190185531A1

Entries annotated with measured Ki
Test target: Bcl-xL (c-myc-tagged) (human, UniProt Q07817 1-209)
Sequence (Q07817 1-209): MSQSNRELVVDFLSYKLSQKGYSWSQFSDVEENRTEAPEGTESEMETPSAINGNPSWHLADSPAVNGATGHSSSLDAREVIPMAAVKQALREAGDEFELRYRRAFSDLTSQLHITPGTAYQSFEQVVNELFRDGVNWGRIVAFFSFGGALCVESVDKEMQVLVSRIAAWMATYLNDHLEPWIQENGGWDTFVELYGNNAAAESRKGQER
Method summary: fluorescence anisotropy competition
Report only the number, with the unit nM understood.

The following binders have reported results that may help.
Ac-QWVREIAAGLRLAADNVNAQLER-NH2 [FS1] = 2720
Ac-QWIREIAAGLRRFADILNAQVER-NH2 [FS3] = 105

QUERY: Looking for the measured Ki of Ac-QWVREIAAGLRRAADDVNAQVER-NH2 [FS2] , can you help?
RESULT: 7340
